Documented IC50 across a set of compounds
system.under.test: ErbB2 kinase (Homo sapiens, UniProt P04626)
Sequence (P04626 23-1255): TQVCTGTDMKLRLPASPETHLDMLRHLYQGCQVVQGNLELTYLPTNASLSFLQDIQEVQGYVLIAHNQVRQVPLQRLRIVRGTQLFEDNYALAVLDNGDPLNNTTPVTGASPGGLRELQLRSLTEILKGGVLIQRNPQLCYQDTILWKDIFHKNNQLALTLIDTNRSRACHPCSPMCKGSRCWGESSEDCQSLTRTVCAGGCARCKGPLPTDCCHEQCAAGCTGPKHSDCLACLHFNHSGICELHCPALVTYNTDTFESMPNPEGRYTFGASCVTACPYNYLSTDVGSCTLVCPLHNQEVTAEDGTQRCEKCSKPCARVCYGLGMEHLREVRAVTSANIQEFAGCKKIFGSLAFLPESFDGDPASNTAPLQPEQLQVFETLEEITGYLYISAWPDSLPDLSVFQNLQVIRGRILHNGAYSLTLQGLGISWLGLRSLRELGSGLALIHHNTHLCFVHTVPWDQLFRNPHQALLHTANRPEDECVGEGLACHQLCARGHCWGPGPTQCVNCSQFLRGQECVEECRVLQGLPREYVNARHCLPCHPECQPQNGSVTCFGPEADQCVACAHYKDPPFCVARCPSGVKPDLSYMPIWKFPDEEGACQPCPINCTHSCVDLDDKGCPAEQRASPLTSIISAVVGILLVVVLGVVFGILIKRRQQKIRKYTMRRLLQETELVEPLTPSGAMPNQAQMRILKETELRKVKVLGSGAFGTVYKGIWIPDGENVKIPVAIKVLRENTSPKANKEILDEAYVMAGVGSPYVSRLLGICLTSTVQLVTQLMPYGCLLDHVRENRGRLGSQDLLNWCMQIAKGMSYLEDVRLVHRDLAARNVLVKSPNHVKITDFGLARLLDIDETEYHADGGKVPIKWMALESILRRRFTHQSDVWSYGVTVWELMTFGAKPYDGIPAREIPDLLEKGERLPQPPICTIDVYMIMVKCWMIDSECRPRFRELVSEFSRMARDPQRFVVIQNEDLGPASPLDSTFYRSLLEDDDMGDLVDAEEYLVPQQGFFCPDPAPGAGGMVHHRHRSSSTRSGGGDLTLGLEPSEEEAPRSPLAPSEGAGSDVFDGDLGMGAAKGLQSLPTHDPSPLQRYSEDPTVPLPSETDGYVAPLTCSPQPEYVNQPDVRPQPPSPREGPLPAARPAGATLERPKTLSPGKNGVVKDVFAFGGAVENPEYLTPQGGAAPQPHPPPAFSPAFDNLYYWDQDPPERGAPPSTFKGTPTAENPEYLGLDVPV
assay.procedure: Enzymatic experiment on ErbB2 (HTRF kinEASE-TK)
Type: biochemical
experimental.parameters: ATP 4 μM; read-out: Kinase IC50 (nM) in vitro ErbB2
Quick note: give the figure in nM, leave out the unit.

Solved cases (5 shown):
Cc1cc(Nc2ncnc3ccc(-c4cccc(F)c4)cc23)ccc1Oc1cc2nncn2cn1 [Embodiment 77]: 5.03
C=C(C)C(=O)Nc1ccc2ncnc(Nc3ccc(Oc4cc5nncn5cn4)c(C)c3)c2c1 [Embodiment 84]: 3
C=CC(=O)NC/C=C/c1ccc2ncnc(Nc3ccc(Oc4cc5nncn5cn4)c(C)c3)c2c1 [Embodiment 53]: 3.58
C=CC(=O)N1CCC(Oc2cc3c(Nc4ccc(Oc5cc6nncn6cn5)c(F)c4)ncnc3cc2OC)CC1 [Embodiment 88]: 1.13
Cc1cc(Nc2ncnc3ccc(-c4cccc(N)c4)cc23)ccc1Oc1cc2nncn2cn1 [Embodiment 35]: 1.1

IN: Requested read-out IC50, target or system ErbB2 kinase (Homo sapiens, UniProt P04626), entry CC1(C)COC(Nc2ccc3ncnc(Nc4ccc(Oc5cc6nncn6cn5)c(Cl)c4)c3c2)=N1 [Embodiment 78]
OUT: 1.8

IN: Report IC50 for CC1(C)COC(Nc2ccc3ncnc(Nc4ccc(Oc5cc6nncn6cn5)c(F)c4)c3c2)=N1 [Embodiment 19] tested on ErbB2 kinase (Homo sapiens, UniProt P04626).
OUT: 3.3

IN: Request: IC50, test system ErbB2 kinase (Homo sapiens, UniProt P04626), entry Cc1cc(Nc2ncnc3ccc(NC4=NC(C)(C)CO4)cc23)ccc1Oc1ccc2nncn2n1 [reference compound]
OUT: 935

IN: Fill in the recorded IC50 for this compound, with ErbB2 kinase (Homo sapiens, UniProt P04626) as test system: Cc1cc(Nc2ncnc3ccc(NC(=O)CC(C)(C)O)cc23)ccc1Oc1cc2nncn2cn1 [Embodiment 17]
OUT: 7.9
